Consider the following molecules and their measured IC50 readings.
STUDY_SYSTEM: His-BIR2-3 (125-356, C202A/C213G, XIAP) (Homo sapiens, UniProt P98170, C202A/C213G)
Construct: His-BIR2-3 (125-356, C202A/C213G, XIAP)
Sequence (P98170 125-356 C202A/C213G): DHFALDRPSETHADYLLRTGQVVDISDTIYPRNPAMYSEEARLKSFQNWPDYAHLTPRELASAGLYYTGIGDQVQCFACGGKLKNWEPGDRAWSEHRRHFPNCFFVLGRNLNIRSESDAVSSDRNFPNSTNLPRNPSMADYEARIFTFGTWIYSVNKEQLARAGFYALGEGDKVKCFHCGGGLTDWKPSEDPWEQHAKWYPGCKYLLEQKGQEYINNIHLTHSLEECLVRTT
PROCEDURE_DETAILS: XIAP-BIR2-3 dimeric SMAC Peptide Homogeneous Time Resolved Fluorescence (HTRF) Assay
Assay type: binding
CONDITION_LABEL: 0.5 nM N-His-BIR2-3, 20 nM fluorescein labeled dimeric SMAC peptide
PARAMETER_MEASURED: IC50 (nM)

- CN[C@@H](C)C(=O)N[C@H](C(=O)N1C[C@@H](c2ccc(C[C@H](NC(=O)[C@@H](NC(=O)[C@H](C)NC)C(C)(C)SCC(=O)N(C)C[C@@H](O)CO)C(=O)N[C@@H]3CCCc4ccccc43)cc2)C[C@H]1C(=O)N[C@@H]1CCCc2ccccc21)C(C)(C)C: 12.3
- CN[C@@H](C)C(=O)N[C@H](C(=O)N[C@@H](Cc1ccc([C@H]2C[C@@H](C(=O)N[C@@H]3CCCc4ccccc43)N(C(=O)[C@@H](NC(=O)[C@H](C)NC)C(C)(C)C)C2)cc1)C(=O)N[C@@H]1CCCc2ccccc21)C(C)(C)C: 6.8

----------
Measured log10 IC50 values are reported for all entries that follow.
STUDY_SYSTEM: His-BIR2-3 (125-356, C202A/C213G, XIAP) (Homo sapiens, UniProt P98170, C202A/C213G)
Construct: His-BIR2-3 (125-356, C202A/C213G, XIAP)
PROCEDURE_DETAILS: XIAP-BIR2-3 dimeric SMAC Peptide Homogeneous Time Resolved Fluorescence (HTRF) Assay
CONDITION_LABEL: 0.5 nM N-His-BIR2-3, 20 nM fluorescein labeled dimeric SMAC peptide
PARAMETER_MEASURED: log10 IC50 (log10 of the value in nM)

* CN[C@@H](C)C(=O)N[C@H](C(=O)N1C[C@@H](NC(=O)c2ccc(C(=O)Nc3ccc(C[C@H](NC(=O)[C@@H](NC(=O)[C@H](C)NC)C(C)(C)SC)C(=O)N[C@@H]4CCCc5ccccc54)cc3)cc2)C[C@H]1C(=O)N[C@@H]1CCCc2ccccc21)C(C)(C)C | 0.46
* CN[C@@H](C)C(=O)N[C@H](C(=O)N1C[C@@H](c2ccc(C[C@H](NC(=O)[C@@H](NC(=O)[C@H](C)NC)C(C)(C)SCCO)C(=O)N[C@@H]3CCCc4ccccc43)cc2)C[C@H]1C(=O)N[C@@H]1CCCc2ccccc21)C(C)(C)C | 0.85
* CN[C@@H](C)C(=O)N[C@H](C(=O)N[C@@H](Cc1ccc(NC(=O)c2ccc(C(=O)N[C@H]3C[C@@H](C(=O)N[C@@H]4CCCc5ccccc54)N(C(=O)[C@@H](NC(=O)[C@H](C)NC)C(C)(C)C)C3)cc2)cc1)C(=O)N[C@@H]1CCCc2ccccc21)C1CCCCC1 | 0.98
* CN[C@@H](C)C(=O)N[C@H](C(=O)N1C[C@@H](c2ccc(C[C@H](NC(=O)[C@@H](NC(=O)[C@H](C)NC)C(C)(C)SCC(=O)NC(CO)CO)C(=O)NC3CCCc4ccccc43)cc2)C[C@H]1C(=O)NC1CCCc2ccccc21)C(C)(C)C (stereo partly drawn) | 0.91
* CN[C@@H](C)C(=O)N[C@H](C(=O)N[C@@H](Cc1ccc([C@H]2C[C@@H](C(=O)N[C@@H](COC)c3ccccc3)N(C(=O)[C@@H](NC(=O)[C@H](C)NC)C(C)(C)C)C2)cc1)C(=O)N[C@@H]1CCCc2ccccc21)C(C)(C)C | 2.15
* CN[C@@H](C)C(=O)N[C@H](C(=O)N[C@@H](Cc1ccc(C(=O)N[C@H]2C[C@@H](C(=O)N[C@@H]3CCCc4ccccc43)N(C(=O)[C@@H](NC(=O)[C@H](C)NC)C(C)(C)C)C2)cc1)C(=O)N[C@@H]1CCCc2ccccc21)C(C)(C)C | 1.14
